For each of the molecules below, state its melting point.

Consider the reported melting point for these molecules:
- CC(C)(C)OC(=O)COc1cc(NC(=O)OC(C)(C)C)c([N+](=O)[O-])cc1-c1ccc(F)cc1: 92 to 93 °C
- NS(=O)(=O)c1ccc(-c2[nH]c3ccc(Cl)cc3c2-c2cccc(Cl)c2)cc1: 249 to 251 °C
- COc1cc(Br)cc2c1OCCC2=O: 137 °C

Turning to the following molecule.
Quick check: melting point of "COCOc1cc2c(cc1-c1cc(C=CC(=O)O)ccc1O)C(C)(C)CCC2(C)C" ?
101 to 103 °C

----------
Give melting point for every item shown.

• Cc1cc(C#N)cc(C)c1Oc1nc(Nc2ccc(C#N)cc2)ncc1N = > 300 °C
• COC(=O)c1cc2cc(C(=O)c3ccc(F)cc3)sc2s1 = 220 °C
• O=C(O)c1cccc(N2CCN(CCc3ccccc3)CC2)c1F = 85.5 to 87.5 °C
• CCOC(=O)c1cn(-c2ccc(C(F)(F)F)cn2)nc1C(C)CC (stereo unspecified) = 63 to 64 °C
• O=C(Cc1cc(F)ccc1[N+](=O)[O-])N1CCN(c2nsc3ccccc23)CC1 = 72 °C

Next, consider the following compound.
What value of melting point has been recorded for this entry: "CCc1nc(-c2ccc(OCCC3CCN(c4ccc(C)nn4)CC3)cc2)no1"
125 °C

----------
Can you tell me melting point for the items I'm about to list?

# annotated cases, reported melting point shown
• COc1ccc(CN(C)CCOc2ccc(NC(=O)c3cc(SC)cc4c(=O)c5ccccc5[nH]c34)cc2)cc1OC = 170 °C
• COc1ccc2[nH]cc(C#N)c2c1 = 147 °C
• O=C1N(C(c2ccccc2)c2ccccc2)c2ccccc2C1(O)c1cc2c(cc1O)OCCO2 (stereo not given) = 210 to 212 °C

Would you mind giving melting point for every compound in the list below?
1. CN(C)c1nc(N(C)Cc2ccccc2O)nc(N(C)Cc2ccccc2O)n1
2. O=[N+]([O-])c1ccc(C=Cc2ccncn2)cc1
3. CCOC(=O)Cc1c(C(=O)OCC)sc2c1cc(C(=O)OCC)n2CC(=O)OCC
4. CCCCc1ncc(/C=C2\C(=O)NC(=O)N2CCCC)n1Cc1ccc(C(=O)O)cc1
5. CCOC(=O)C1=C(C)NC(CO)=C(C(=O)OCC)C1c1cccs1 (stereo not given)

1. 156 to 157 °C
2. 213 to 215 °C
3. 190 °C
4. 163 to 165 °C
5. 125 to 126 °C

Quick batch: melting point for everything below.
1. CN(C)CCCOc1c(Cl)cc(-c2nnc(CSCCOc3ccccc3)o2)cc1Cl
2. CC(C#N)C(O)(Cn1cncn1)c1ccc(Cl)cc1Cl (stereo not given)
3. Nc1nnc(C(F)(F)Oc2ccccc2)s1
4. COc1ccc([C@@H]2Cc3c(Cl)cccc3NC(=O)[C@@H]2O)cc1
5. CCCCN1CC(c2ccccc2)=C(O)C1=O
6. CC(C)Oc1ccc(C(=O)NCCCCCCCNC(=O)c2ccc(OC(C)C)cc2)cc1
7. CN(C)CCNC(=O)CCn1c(-c2ccc(Cl)cc2)nc2cccnc21

1. 95 to 99 °C
2. 164 °C
3. 149 to 151 °C
4. 191 to 193 °C
5. 137 to 139 °C
6. 135 to 136 °C
7. 142 to 143 °C
